assay: physchem; conditions: 25 °C, water, thermodynamic from solid
recorded_endpoint: solubility at 24 h

The cases that follow already have their solubility at 24 h on record.
{"compound": "COCCOCCOC(=O)OC(C)OC(=O)c1ccc(NC(=O)[C@@H]2N[C@@H](CC(C)(C)C)[C@@]3(C(=O)Nc4cc(Cl)ccc43)[C@H]2c2cccc(Cl)c2F)c(OC)c1 (mixture of isomers)", "result": "> 0.4 mg/mL"}
{"compound": "COCCOCCOCCOC(=O)OC(C)OC(=O)c1ccc(NC(=O)[C@@H]2N[C@@H](CC(C)(C)C)[C@@]3(C(=O)Nc4cc(Cl)ccc43)[C@H]2c2cccc(Cl)c2F)c(OC)c1 (single isomer, unassigned) [chiral-R-SIP-PEG-3]", "result": "> 8 mg/mL"}

Now for the compound whose solubility at 24 h we want.
Query :: What value of solubility at 24 h has been reported for the following compound? COCCOCCOCCOC(=O)OC(C)OC(=O)c1ccc(NC(=O)[C@@H]2N[C@@H](CC(C)(C)C)[C@@]3(C(=O)Nc4cc(Cl)ccc43)[C@H]2c2cccc(Cl)c2F)c(OC)c1 (mixture of isomers) [rac-SIP-PEG-3]
Result :: > 3 mg/mL

====

tested on: SJSA-1 xenografted tumor; experiment: Inhibitory effect on the growth of SJSA-1 xenografted tumor in nude mice; assay type: in vivo; conditions: vs saline control; doses and routes as in E5
recorded_endpoint: Inhibition rate (%) on the basis of tumor weight
Give just the numeric value; % need not be written.

Check out these entries, answers already filled in.
{"compound": "COc1cc(C(N)=O)ccc1NC(=O)[C@@H]1N[C@@H](CC(C)(C)C)C2(C(=O)Nc3cc(Cl)ccc32)[C@H]1c1cccc(Cl)c1F (mixture of isomers) [rac-SIP, reference compound]", "number": 49.69}
{"compound": "COc1cccc2c1C(=O)c1c(O)c3c(c(O)c1C2=O)C[C@@](O)(C(=O)CO)C[C@@H]3O[C@H]1C[C@H](N)[C@H](O)[C@H](C)O1 [Doxorubicin ADM, Doxorubicin, reference compound]", "number": 48.27}
{"compound": "COCCOCCOCCOC(=O)OC(C)OC(=O)c1ccc(NC(=O)[C@@H]2N[C@@H](CC(C)(C)C)[C@@]3(C(=O)Nc4cc(Cl)ccc43)[C@H]2c2cccc(Cl)c2F)c(OC)c1 (single isomer, unassigned) [chiral-R-SIP-PEG-3]", "number": 97.84}
{"compound": "COCCOCCOC(=O)OC(C)OC(=O)c1ccc(NC(=O)[C@@H]2N[C@@H](CC(C)(C)C)[C@@]3(C(=O)Nc4cc(Cl)ccc43)[C@H]2c2cccc(Cl)c2F)c(OC)c1 (mixture of isomers)", "number": 50.55}
{"compound": "COCCOCCOCCOC(=O)OC(C)OC(=O)c1ccc(NC(=O)[C@@H]2N[C@@H](CC(C)(C)C)[C@@]3(C(=O)Nc4cc(Cl)ccc43)[C@H]2c2cccc(Cl)c2F)c(OC)c1 (mixture of isomers) [rac-SIP-PEG-3]", "number": 92.86}

Attention now shifts to the item below.
Query :: Item COCCOCCOCCOCCOCCOCCOCCOC(=O)OC(C)OC(=O)c1ccc(NC(=O)[C@@H]2N[C@@H](CC(C)(C)C)[C@@]3(C(=O)Nc4cc(Cl)ccc43)[C@H]2c2cccc(Cl)c2F)c(OC)c1 (mixture of isomers) has what recorded Inhibition rate (%) on the basis of tumor weight?
Result :: 97.06
